experimental.endpoint: melting point

Look over these answered cases.
| compound | experimental.endpoint | result |
| --- | --- | --- |
| Clc1cc2c(cc1Cl)Sc1cc(Cl)c(Cl)cc1S2 | melting point | 250 to 255 °C |
| CCOC(=O)[C@H](Cc1ccc(O)cc1)NC(=O)C(C)(C)NC(=O)[C@@H](SC(C)=O)C(C)C | melting point | 137 to 138 °C |
| c1ccc(C2=N[C@@H](c3ccccc3)[C@H](N3CCOCC3)S2)cc1 (relative stereo) | melting point | 92 to 94 °C |
| CCCCCCCCCCCCCCCCCCNC(=O)OCC1(CNS(=O)(=O)CCCI)CCCO1 (stereo not given) | melting point | 66.5 to 67.5 °C |
| Cc1cc(-c2cc(C(F)(F)F)nn2-c2ccc(S(C)(=O)=O)c(F)c2)ccc1-c1ccco1 | melting point | 123 to 125 °C |
| CC(=O)Nc1ncc2ncn(COC(COC(C)C)COC(C)C)c2n1 | melting point | 85 to 86 °C |
| O=c1c2c(Cc3cccc(OC(F)(F)F)c3)n[nH]c2c2cccnc2n1-c1ccccc1 | melting point | 253 to 254 °C |
| C#CCN1C(=O)COc2cc(F)c(N3C(=O)C4C5CC5CN4C3=O)cc21 (stereo not given) | melting point | 217 to 219 °C |
| O[C@@H]1c2ccccc2C=C[C@H]1N1CCCC1 (relative stereo) | melting point | 140 to 141 °C |
| CCc1cc(C(=O)c2ccccc2Cl)c(-n2c(C)nnc2CNC(=O)Nc2ccccc2)s1 | melting point | 141 to 143 °C |

# return recorded melting point for entry Cc1n[nH]c2c(C(=O)NC(C)C)c(NC(=O)c3cc(C(F)(F)F)nn3-c3ncccc3Cl)c(Cl)cc12
235 to 236 °C

# return recorded melting point for entry O=C1Cc2cc(CCN3CCN(c4nsc5ccccc45)CC3)ccc2N1
288 °C

# return recorded melting point for entry CCSC1=NCC(=O)N1c1ccc(F)cc1
114 to 115 °C
